Biological target: human androgen receptor (AR) (Homo sapiens)
Construct: expressed in transfected cells; host or cells: mouse myoblast C2C12 cells, transiently co-transfected
Sequence (P10275 whole entry): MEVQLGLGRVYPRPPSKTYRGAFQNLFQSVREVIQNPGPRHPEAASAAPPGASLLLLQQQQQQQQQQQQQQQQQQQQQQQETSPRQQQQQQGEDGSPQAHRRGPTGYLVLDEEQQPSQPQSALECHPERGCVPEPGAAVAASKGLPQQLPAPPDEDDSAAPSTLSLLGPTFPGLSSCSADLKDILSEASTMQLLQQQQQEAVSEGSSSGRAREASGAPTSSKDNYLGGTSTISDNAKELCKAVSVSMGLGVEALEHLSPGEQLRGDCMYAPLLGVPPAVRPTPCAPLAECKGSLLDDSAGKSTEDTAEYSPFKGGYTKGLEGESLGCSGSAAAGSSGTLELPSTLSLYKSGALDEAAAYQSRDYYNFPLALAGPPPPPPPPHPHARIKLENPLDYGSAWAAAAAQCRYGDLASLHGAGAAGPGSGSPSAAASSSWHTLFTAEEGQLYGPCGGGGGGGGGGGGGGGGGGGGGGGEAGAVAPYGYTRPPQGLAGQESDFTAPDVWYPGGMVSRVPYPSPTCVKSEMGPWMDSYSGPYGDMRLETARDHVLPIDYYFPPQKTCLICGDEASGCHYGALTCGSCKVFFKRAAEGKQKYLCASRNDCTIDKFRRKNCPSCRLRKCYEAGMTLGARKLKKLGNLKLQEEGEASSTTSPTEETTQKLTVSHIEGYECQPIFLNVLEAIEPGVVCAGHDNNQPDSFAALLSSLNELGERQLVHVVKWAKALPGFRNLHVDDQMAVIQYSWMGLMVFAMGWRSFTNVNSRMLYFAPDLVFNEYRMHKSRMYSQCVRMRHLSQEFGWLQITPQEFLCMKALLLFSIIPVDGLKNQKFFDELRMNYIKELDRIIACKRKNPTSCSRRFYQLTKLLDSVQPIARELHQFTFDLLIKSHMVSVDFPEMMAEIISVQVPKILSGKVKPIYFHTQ
Experiment: C2C12 AR/ARE reporter assay
Format: cell-based
Settings: C2C12, read-out: C2C12 % Efficacy
outcome_measure: Emax (%)
Field: numeric (%). Do not append units.

- CC(C)C(=O)NC1CCc2c(c3cc(C#N)ccc3n2Cc2cncs2)C1 (centres unmarked): 80.9
- CC(C)C(=O)NC1CCc2c(c3cc(F)ccc3n2Cc2ccccc2C#N)C1 (centres unmarked): 35.8
- COc1ccccc1Cn1c2c(c3cc(Br)ccc31)CC(NC(=O)C(C)C)CC2 (centres unmarked): 103
- COc1ccc(Cn2c3c(c4cc(F)ccc42)CC(NC(=O)C(C)C)CC3)cc1 (centres unmarked): 15.3
- Cc1ccc2c(c1)c1c(n2Cc2ccccc2F)CCC(NC(=O)C(C)C)C1 (centres unmarked): 69.6

Could you share which Emax value was measured for COC(=O)c1cccc(Cn2c3c(c4cc(Cl)ccc42)CC(NC(=O)C(C)C)CC3)c1 (centres unmarked) ?
32.9

Could you share which Emax value was measured for CC(C)C(=O)NC1CCc2c(c3cc(-c4nccs4)ccc3n2Cc2cccc(F)c2)C1 (centres unmarked) ?
85.6

Could you share which Emax value was measured for CC(C)C(=O)NC1CCc2c(c3cc(Br)ccc3n2Cc2ccccc2C#N)C1 (centres unmarked) ?
87.3
